# credit: paper PMC12497685

System: SARS‐CoV‐2 spike protein pseudotyped lentivirus, D614G variant
Type: cell-based
Conditions: mean ± SEM (n = 3); read-out: Pseudovirus assay, IC50, D614G
experimental endpoint: pIC50
pIC50 is a log-scale quantity: -log10 of the concentration expressed in molar.

Prompt: Given CC(C)C[C@H](NC(=O)[C@H]1O[C@@H]1C(=O)O)C(=O)NCCCCN=C(N)N [E‐64, reference compound] , report its pIC50 on SARS‐CoV‐2 spike protein pseudotyped lentivirus, D614G variant.
Response: 4.64
